Reported activity, negative = inhibition values for the following molecules.
- assay.system: Cytochrome P450 1A2 (Homo sapiens)
- procedure.details: Cytochrome panel assay with activity outcomes; as to activity, negative = inhibition: % is scaled to controls: 0 for no effect and ±100 for the full control effect
- setup.conditions: recombinant CYP, pro-luciferin dealkylation, luminescence, p450-cyp1a2; series mostly up to 57.1 µM
- Experimental: The P450 gene superfamily is involved in the metabolism and clearance of xenobiotics. This assay used various human CYP P450 isozymes to measure the dealkylation of various pro-luciferin substrates to luciferin. The luciferin is then measured by luminescence after the addition of a luciferase detection reagent. […] Inhibitors and some substrates limit the production of luciferin, and decrease measured luminescence. […] 8, Detection, 1 sec, ViewLux luminescent read […]
Screen size: about 16,000 compounds; about 5,700 (36%) were called active. About 24% were inconclusive and are not listed. The list shows a part of the results.

molecule	assay.system	activity, negative = inhibition
O=C(O)/C(=C\c1ccccc1)c1ccccc1	Cytochrome P450 1A2 (Homo sapiens)	-20.8% [at 11.4 µM] (inactive)
CCN1C(=O)[C@H]2[C@H]3[C@H](O)[C@H](O)C/C(=N/OCC(C)C)[C@H]3CC[C@@H]2C1=O	Cytochrome P450 1A2 (Homo sapiens)	-1.29% [at 11.4 µM] (inactive)
O=C(O)c1nn(-c2ccccc2-c2n[nH]c(=O)[nH]c2=O)c(=O)[nH]c1=O	Cytochrome P450 1A2 (Homo sapiens)	-21.2% [at 11.4 µM] (inactive)
COC(=O)[C@H](C)NC(=O)C/C=C\[C@@H](C)[C@H]1C=C[C@H](O)[C@@H](CO)O1	Cytochrome P450 1A2 (Homo sapiens)	-5.17% [at 11.4 µM] (inactive)
CO[C@@H]1COC(=O)C/C=C\[C@@H](C)[C@H](OC)COC(=O)[C@H](COCc2ccccc2)NC(=O)C/C=C\[C@H]1C	Cytochrome P450 1A2 (Homo sapiens)	-0.402% [at 11.4 µM] (inactive)
N[C@H](C(=O)O)[C@@H](O)c1cnc[nH]1	Cytochrome P450 1A2 (Homo sapiens)	-2.61% [at 11.4 µM] (inactive)

query: Query for Cytochrome P450 1A2 (Homo sapiens): what activity, negative = inhibition does the record show for C[C@@H](c1ccccc1)N1C(=O)[C@@H]2[C@H]3C(=CC[C@H]2C1=O)C(=O)[C@H]1O[C@H]1[C@H]3O ?
result: -2.35% [at 11.4 µM] (inactive)

query: Input c1cc2c(cc1C(N1CCNCC1)N1CCNCC1)OCO2
result: -3.03% [at 2.29 µM] (inactive)

###

- assay.system: Cytochrome P450 1A2 (Homo sapiens) (UniProt P05177)
- Sequence (P05177 whole entry, looked up): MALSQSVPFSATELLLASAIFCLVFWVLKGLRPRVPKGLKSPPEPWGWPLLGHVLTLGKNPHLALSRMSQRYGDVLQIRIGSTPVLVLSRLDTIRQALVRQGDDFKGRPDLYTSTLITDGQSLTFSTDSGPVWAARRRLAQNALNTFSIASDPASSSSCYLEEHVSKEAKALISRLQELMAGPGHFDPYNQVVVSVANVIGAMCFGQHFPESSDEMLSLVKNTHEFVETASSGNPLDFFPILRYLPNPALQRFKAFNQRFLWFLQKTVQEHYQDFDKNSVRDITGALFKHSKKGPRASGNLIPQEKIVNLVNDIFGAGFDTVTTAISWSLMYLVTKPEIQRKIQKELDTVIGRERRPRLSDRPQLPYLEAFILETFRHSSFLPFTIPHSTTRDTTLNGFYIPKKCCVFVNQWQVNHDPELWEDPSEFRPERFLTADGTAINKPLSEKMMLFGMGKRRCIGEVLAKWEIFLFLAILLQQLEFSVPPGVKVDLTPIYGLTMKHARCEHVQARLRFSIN
- procedure.details: Cytochrome panel assay with activity outcomes
- setup.conditions: recombinant CYP, pro-luciferin dealkylation, luminescence, p450-cyp1a2; series mostly up to 57.1 µM
The campaign covered roughly 16,000 compounds. About 5,700 (36%) were called active. Not shown: some 24% with an inconclusive outcome. The call rests on the fitted dose curve; in most records, active means well fitted curve in the direction sought with a large enough effect; inconclusive means small, poorly fitted or top-dose-only effect, or effect the other way; inactive means no such curve, though single readings can be large or run the other way. Some of the results follow.
Form entry, call: pick from active, inactive

Solved entries:
compound	group.label
Cc1ccc(OCCOCCn2ccnc2)c(Br)c1	active
COc1ccc(NC(=O)COC(=O)Cn2c(C)nc3ccccc32)cc1OC	inactive
COc1ccc(-c2cc(C(=O)Nc3cc(OC)c(OC)c(OC)c3)no2)cc1OC	inactive
Cc1noc(C)c1-c1cc(NCc2ccccc2)ncn1	active
Cc1cccc(CNc2cc(-c3c(C)noc3C)ncn2)c1	active

Then this compound:
query: State the result this test recorded for O=C1CSC(c2ccccn2)N1c1ccc(Cl)c(Cl)c1 (stereo unspecified) .
result: active
